I'd appreciate it if you could supply growth inhibition values for the items below.
# protocol: NCI Yeast Anticancer Drug Screen. Data for the cln2 rad14 strain (AID 165);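 note: 0% = growth equal to vehicle treated cultures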
# reported conditions: S. cerevisiae cln2 rad14 strain, at 5.0 µM (retest, dose inferred, filed as 0.5), active compounds read high
The panel holds about 79,000 compounds, 15% with a hit somewhere; the sample as a whole holds those more often.
Numbers only, in %.

Recorded growth inhibition, per entry:
CC(CC/C(=N/O)c1ccccc1)(CC/C(=N\O)c1ccccc1)[N+](=O)[O-] (configuration not stated)    2
CC(/C=C/c1ccc([N+](=O)[O-])o1)=N/N1CC(CN2CCOCC2)OC1=O (configuration not stated)    6
CC(C)OC(=O)NNc1cc(Cl)ccc1Cl    4
CC1=NN(C(=O)c2ccccc2O)C(=O)/C1=C/c1ccco1    28

Record growth inhibition for all entries; do not skip any.
1. O=C(NCCCCN(CCCNC(=O)C(F)(F)F)Cc1ccccc1)C(F)(F)F
2. COC(=O)C(=O)CC(=O)c1cccc(OC)c1
3. Cc1c2cc[n+](CCO)cc2c(C)c2c1[nH]c1ccc(O)cc12
4. c1ccc(-c2cc(C3CO3)c3ccccc3n2)cc1 (configuration not stated)
5. CCOc1ccc(N)c(S)c1
6. CC(C)S(=O)(=O)/C=C\S(=O)(=O)C(C)C
7. Oc1ccc(C2(c3ccc(O)cc3)CCCC2)cc1

14
-51
13
-29
9
-50
44

// lookup growth inhibition for O=C(Cc1ccccc1)NN1C(=O)C(Cl)C1c1cc(Br)cc(Br)c1O (configuration not stated)
46

* * *

# protocol: NCI Yeast Anticancer Drug Screen. Data for the mec2-1 strain (AID 157)
# reported conditions: S. cerevisiae mec2-1 strain, at 50.0 µM (retest, dose inferred, filed as 5.0)
About 79,000 compounds went through this panel and 15% of them were active in at least one assay; those are over-represented in the sample as a whole. Active and inactive are the calls of the source. Cut-off read from the data, not from the text of the source: active = growth inhibition above about 70%; inactive = the rest.
Reply using exactly one outcome from t for active, f for inactive

Below are worked cases with known answers.
Oc1c2c(c(O)c3ccccc13)C1(N=N2)c2ccccc2Oc2ccccc21    t
O=[N+]([O-])/C=C/c1cc2ccc3ccccc3c2[nH]1    t
COc1ccc2nc3cccc([N+](=O)[O-])c3c(NCCNCCN(C)C)c2c1    t

Could you please tell me the result logged for CCCCCCC1OCC(O)C(OCCCC)O1 (configuration not stated) in this assay?
f

So what was the verdict on OC1(c2ccccc2)C2CC=CC2C1(c1ccccc1)c1ccccc1 (configuration not stated) in this test?
f

For O=C1SS(=O)c2ccccc21 (configuration not stated) , which call appears in the assay record?
t

In this assay, the call recorded for Cc1ccc(NC(=O)CCC(=O)C(C)C(=O)c2ccccc2)c(C)c1 (configuration not stated) was what?
f

Tell me the assay call for CC(C)OC(=O)NNc1c(Cl)cc(Cl)cc1Cl please.
f

* * *

# protocol: NCI Yeast Anticancer Drug Screen. Data for the wt1 strain (AID 149);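 note: 0% = growth of vehicle-treated wt1 cultures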
# reported conditions: S. cerevisiae wt1 strain (SPY 50644) growth inhibition; at 33.0 µM
The panel holds about 79,000 compounds, 15% with a hit somewhere; the sample as a whole holds those more often. Activity calls are given as the source filed them. Rule as the data show it: active = growth inhibition above about 70%; inactive = the rest.
The categories you may choose from are active, inactive

Would you please look over these solved cases?
CCCC/C=C1\CCC(CN2CCCC2)C1=O (stereo not drawn)    inactive
CCC(=O)C1=C(O)c2cc(OC)ccc2CC1C(=O)OC (stereo not drawn)    inactive
Nc1ccc(/C=C/c2ccc3cccnc3c2)cc1    inactive
O=[N+]([O-])c1ccc(/C=C\c2ccc3c(c2)OCO3)c([N+](=O)[O-])c1    inactive
CSC(=S)N/N=C/c1ccccc1    inactive
Nc1cc2c(cc1N)-c1ccccc1C2=O    inactive
CCCCCCC1OCC(O)C(OCCCC)O1 (stereo not drawn)    inactive
O=C(CCCN1CCC(Nc2ccc(F)cc2)(c2nnnn2C2CCCCC2)CC1)c1ccc(F)cc1    inactive
OC1(C#CI)CCCCC1    active
c1ccc([P+](CCN2Cc3ccccc3C2)(c2ccccc2)c2ccccc2)cc1    inactive

Any idea what this test logged for COC(=N)c1ccc(O)c(C)c1 ?
inactive

I'd appreciate the recorded outcome for O=NC1c2cccc3cccc(c23)C1N=O (stereo not drawn) from this test.
inactive

Tell me the recorded outcome of this test for CC(C)(CN1CCCCC1)C(=O)/C=C/c1c(Cl)cccc1Cl .
active

* * *

# protocol: NCI Yeast Anticancer Drug Screen. Data for the rad50EPP+ strain (AID 151);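 note: 0% = growth of vehicle-treated control cultures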
# reported conditions: S. cerevisiae rad50 mutant strain, at 1.2 µM, active compounds read high
This is part of a sample that, as a whole, favours compounds with a hit. Of some 79,000 tested, about 15% had one in any assay.
readout: growth inhibition (%)
Answers are plain numbers, in %.

Recorded growth inhibition, per entry:
COC1/C=C\C=C(/C)C(=O)NC2=CC(=O)C(=O)C(=C2O)CC(C)CC(OC)C(O)C(C)/C=C(\C)C1OC(N)=O (stereo unspecified)    15
N#[N+]c1c([O-])c2ccccc2c2ccccc12    13
CCOC(=O)C(Cc1c2ccccc2cc2ccccc12)(NC(C)=O)C(=O)OCC    0
CCCN=Cc1cc(Cc2ccc(O)c(C=NCCC)c2)ccc1O    27
O=C1Nc2ccc(Br)cc2C1=Nc1cccnc1    3

// for each molecule below, give its growth inhibition
1. NCCCSc1ccccc1
2. CC1=CC(=C(c2ccc(N)c(C)c2)c2ccc(N)c(C)c2)C=CC1=N
3. C/C(=N/NC(=S)Nc1ccccc1C)c1ccccn1

1. -3
2. 8
3. 3

// each listed molecule needs a value for growth inhibition
1. CC(/C=C/c1ccc([N+](=O)[O-])o1)=N/N1CC(CN2CCOCC2)OC1=O (stereo unspecified)
2. O=C(/C(=C/c1ccc(O)cc1)c1ccccc1)c1ccccc1
3. CCCNCC(=O)O[C@]1(CC)C(=O)OCc2c1cc1n(c2=O)Cc2cc3ccccc3nc2-1

1: -4; 2: -5; 3: 29

* * *

# protocol: NCI Yeast Anticancer Drug Screen. Data for the rad14 strain (AID 159);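 note: 0% = growth of vehicle-treated control cultures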
# reported conditions: S. cerevisiae rad14 strain growth inhibition; at 33.0 µM
About 79,000 compounds went through this panel and 15% of them were active in at least one assay; those are over-represented in the sample as a whole. Active and inactive are the calls of the source. Rule as the data show it: active = growth inhibition above about 70%; inactive = the rest.
Log the outcome using a class from true = active, false = inactive

Observe how each entry below is paired with its result.
C[n+]1c(/C=C/c2ccc(/C=N/NC(=O)c3ccc(C(=O)N/N=C/c4ccc(/C=C/c5cn6ccccc6[n+]5C)cc4)cc3)cc2)cn2ccccc21    true
CCCCCCCCCCCCCCCCCCNC(=S)/N=C/c1c(O)c2ccccc2[nH]c1=O    false

Any idea what this test logged for OC(c1ccccc1)(c1ccccc1)c1nccc2ccccc12 ?
false

Give the logged outcome of this assay for the following molecule: COc1ccccc1/C=C\C(=O)C1COCN1 (stereo not given)
false

State the result this test recorded for Cc1ccc([N+](=O)[O-])c2c(NCCC[N+](C)(C)[O-])c3ccccc3nc12 .
true

// outcome(item) with item = COc1ccc(-c2cc(-c3cc(C)cc(Cl)c3O)nc3[nH]c(=S)[nH]c(=S)c23)cc1
false

Which outcome was entered for the molecule COc1ccc(C(C)c2cc3c(cc2OC(C)O)OCO3)cc1 (stereo not given) in this test?
false

Could you please tell me the result logged for OC(CC(O)(C(F)(F)F)C(F)(F)F)c1ccc(C(O)CC(O)(C(F)(F)F)C(F)(F)F)cc1 (stereo not given) in this assay?
true

Test call, this molecule: O=C1C(=C2CCCC2)CCC1CN1CCCCC1 (stereo not given)
false

* * *

# protocol: NCI Yeast Anticancer Drug Screen. Data for the rad50 strain (AID 155);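 note: 0% = growth of vehicle-only cultures of the same strain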
# reported conditions: S. cerevisiae rad50 strain growth inhibition; at 50.0 µM (retest, dose inferred, filed as 5.0); active compounds read high
About 79,000 compounds went through this panel and 15% of them were active in at least one assay; those are over-represented in the sample as a whole.
Please respond with reported growth inhibition for every item in the list.
Give bare numbers, in %.

Worked set:
CCCCCCCCNCCCCCCCC    99
COC(=O)C(Cc1c[nH]c2ccccc12)N1CN(C)c2ccccc2C1=O (centres undefined)    37

# return growth inhibition for each item in the list
1. CCC[CH2][Ge]([CH2]CCC)([CH2]CCC)[O]C(=O)C(O)c1ccccc1 (centres undefined)
2. N#C/C(=C\NC(=S)Nc1ccc(S(N)(=O)=O)cc1)C(=O)c1ccc2ccccc2c1
3. CCCCCCC1OCC(O)C(OCCCC)O1 (centres undefined)

1: 95; 2: 97; 3: 3

* * *

Hi there, I'd appreciate the recorded growth inhibition for every entry that follows.
# protocol: NCI Yeast Anticancer Drug Screen. Data for the wt2 strain (AID 169);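 note: 0% = growth of vehicle-treated yeast cultures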
# reported conditions: S. cerevisiae wt2 strain growth inhibition; at 11.0 µM; active compounds read high
This is part of a sample that, as a whole, favours compounds with a hit. Of some 79,000 tested, about 15% had one in any assay.
Answers are plain numbers, in %.

Each of the following entries comes with a recorded value; kindly state growth inhibition for each.
1. O=C1C(/C=C/c2ccc(Cl)cc2)=NNC2N1N=C1NC(=O)C3(NN12)c1ccccc1-c1ccccc13 (stereo not given)
2. CNC(=O)OCc1c(COC(=O)NC)c(C)n(-c2ccc(Br)cc2)c1C
3. COc1cc(OC)c(CSCC(NC(=O)OCC2c3ccccc3-c3ccccc32)C(=O)O)c(OC)c1 (stereo not given)
4. Cc1cc(Cl)ccc1NC(=O)/C(Cl)=C(/Cl)C(=O)O
5. CC(C)(CN1CCCCC1)C(=O)CC(SCCS(=O)(=O)O)c1ccccc1 (stereo not given)

-2
-19
58
5
5

These measurements were taken from PubChem BioAssay (NCI).
